The reported measurements were obtained from patent US20230374151A1.

# measurement_target: T1, TnMUC1 peptide (fully glycosylated), biotinylated
# T1 construct: Two batches (36-2 and 65-1) of the same peptide; also called 36-2; 7-36-2
# test_method_notes: SPR (Biacore T200), peptide 36-2 on CAP chip, scFv as analyte, 1:1 fit; average
# Protocol: Biotin CAPture Reagent was captured onto the active and reference flow cells for 300 seconds at 2 μl/min. The biotinylated peptides were diluted in BIAcore Running Buffer (as described above) and captured onto the active flow cell only, at a flow rate of 10 μl/min to obtain the capture level calculated in the equation detailed above. […] BIAcore T200 Evaluation Software v3.0 was used to analyse the data. […] Kinetic Parameters (KD, kd and kₐ) were calculated for all the humanised anti-TnMUC1 scFv proteins.
measured_attribute: Kd (nM)
# unit: nM | format: bare number

Item under review: humanised anti-TnMUC1 scFv protein 9P1 (88A), VL-VH humanised control (scFv, Control scFv designed from a humanised antibody of WO2015/159076 (10D2 is said to come from Ab2, so 10D1 by implication from Ab1); Neat supernatant of construct 10D1 in the Octet assay; purified protein 9P1 in Biacore and flow cytometry; also called 10D1) scFv: DIVMTQSPDSLAVSLGERATINCKSSQSLLNSGDQKNYLTWYQQKPGQPPKLLIYWASTRESGVPDRFSGSGSGTDFTLTISSLQAEDVAVYYCQNDYSYPLTFGQGTKVEIKGGGGSGGGGSGGGGSGGGGSQVQLVQSGAEVKKTGSSVKVSCKASGYTFTDHAIHWVRQAPGQALEWMGHFSPGNTDIKYNDKFKGRVTLTVDRSMSTAYMELSSLRSEDTAMYYCKTSTFFFDYWGQGTMVTVSSAAAHHHHHH . Reported Kd?
23
